Each recorded value in this set is attributed to paper PMC12703733.

# Type: cell-based, human
# REPORTED_CONDITIONS: human, Cell viability (%)
Bridge positions count the residues as written; N and C are the ends. Square brackets hold non-standard residues; d marks the D form. Peptide text beside a SMILES is read from it. Phe(4-guanidino) = N=C(N)Nc1ccc(C[C@H](N)C(=O)O)cc1
QUANTITY: viability at 24 h, 3.12 µM (%)
Number in %, nothing else.

Task: Please give measured viability at 24 h, 3.12 µM of the following entry: CC[C@H](C)[C@H](NC(=O)[C@H](CCCNC(=N)N)NC(=O)[C@H]1CCC(=O)NCCCC[C@H](NC(=O)[C@H](Cc2ccccc2)NC(=O)[C@H](Cc2c[nH]c3ccccc23)NC(=O)[C@@H]2CCCN2C(=O)[C@@H](NC(=O)[C@@H](N)Cc2ccc(NC(=N)N)cc2)C(C)C)C(=O)N[C@@H](CCCCN)C(=O)N[C@@H](Cc2ccccc2)C(=O)N[C@H](CC(C)C)C(=O)N1)C(=O)N[C@@H](CC(C)C)C(N)=O [Peptide 6, (p-guanidino)FVPWF[KKFle]RIL] (H-[Phe(4-guanidino)]VPWFKKF[dL][dE]RIL-NH2; lactam 6-10)
Output: 100

---

Provide the recorded viability at 2 h, 25 µM for the entries that follow.
# Format: cell-based, human
# REPORTED_CONDITIONS: human, Cell viability (%)
Bridge positions count the residues as written; N and C are the ends. Square brackets hold non-standard residues; d marks the D form. Peptide text beside a SMILES is read from it. * marks the point of attachment. Phe(4-guanidino) = N=C(N)Nc1ccc(C[C@H](N)C(=O)O)cc1; X1 = N=C(N)N[C@@H](Cc1ccccc1)C(=O)*
Number in %, nothing else.

Task: Please give measured viability at 2 h, 25 µM of the following entry: CC[C@H](C)[C@H](NC(=O)[C@H](CCCNC(=N)N)NC(=O)[C@H]1CCC(=O)NCCCC[C@H](NC(=O)[C@H](Cc2ccccc2)NC(=O)[C@H](Cc2c[nH]c3ccccc23)NC(=O)[C@@H]2CCCN2C(=O)[C@@H](NC(=O)[C@H](Cc2ccccc2)NC(=N)N)C(C)C)C(=O)N[C@@H](CCCCN)C(=O)N[C@@H](Cc2ccccc2)C(=O)N[C@H](CC(C)C)C(=O)N1)C(=O)N[C@@H](CC(C)C)C(N)=O [Peptide 3, guanidino-FVPWF[KKFle]RIL] (X1-VPWFKKF[dL][dE]RIL-NH2; lactam 5-9)
Output: 104

Task: Please give measured viability at 2 h, 25 µM of the following entry: CC[C@H](C)[C@H](NC(=O)[C@H](CCCNC(=N)N)NC(=O)[C@H]1CCC(=O)NCCCC[C@H](NC(=O)[C@H](Cc2ccc(NC(=N)N)cc2)NC(=O)[C@H](Cc2c[nH]c3ccccc23)NC(=O)[C@@H]2CCCN2C(=O)[C@@H](NC(=O)[C@@H](N)Cc2ccccc2)C(C)C)C(=O)N[C@@H](CCCCN)C(=O)N[C@@H](Cc2ccccc2)C(=O)N[C@H](CC(C)C)C(=O)N1)C(=O)N[C@@H](CC(C)C)C(N)=O [Peptide 8, FVPW(p-guanidino)F[KKFle]RIL] (H-FVPW[Phe(4-guanidino)]KKF[dL][dE]RIL-NH2; lactam 6-10)
Output: 110

---

# Tested on: P. aeruginosa ATCC 27853
# PROTOCOL_NOTES: microbe, parasite or virus in culture
# Assay type: cell-based
# REPORTED_CONDITIONS: ATCC 27853
Bridge positions count the residues as written; N and C are the ends. Square brackets hold non-standard residues; d marks the D form. Peptide text beside a SMILES is read from it. Pro(cis-4-guanidino) = NC(N)=N[C@@H]1CN[C@H](C(=O)O)C1
QUANTITY: MIC (µM)
Number in µM, nothing else.

Task: Report MIC under test system P. aeruginosa ATCC 27853 for CC[C@H](C)[C@H](NC(=O)[C@H](CCCNC(=N)N)NC(=O)[C@H]1CCC(=O)NCCCC[C@H](NC(=O)[C@H](Cc2ccccc2)NC(=O)[C@H](Cc2c[nH]c3ccccc23)NC(=O)[C@@H]2C[C@H](NC(=N)N)CN2C(=O)[C@@H](NC(=O)[C@@H](N)Cc2ccccc2)C(C)C)C(=O)N[C@@H](CCCCN)C(=O)N[C@@H](Cc2ccccc2)C(=O)N[C@H](CC(C)C)C(=O)N1)C(=O)N[C@@H](CC(C)C)C(N)=O [Peptide 7, FV(4-guanidino)PWF[KKFle]RIL] (H-FV[Pro(cis-4-guanidino)]WFKKF[dL][dE]RIL-NH2; lactam 6-10) .
Output: 12.5

---

Provide the recorded viability at 24 h, 3.12 µM for the entries that follow.
# Format: cell-based, human
# REPORTED_CONDITIONS: human, Cell viability (%)
Bridge positions count the residues as written; N and C are the ends. Square brackets hold non-standard residues; d marks the D form. Peptide text beside a SMILES is read from it. Pro(cis-4-guanidino) = NC(N)=N[C@@H]1CN[C@H](C(=O)O)C1; Phe(4-guanidino) = N=C(N)Nc1ccc(C[C@H](N)C(=O)O)cc1

Task: Please give measured viability at 24 h, 3.12 µM of the following entry: CC[C@H](C)[C@H](NC(=O)[C@H](CCCNC(=N)N)NC(=O)[C@H]1CCC(=O)NCCCC[C@H](NC(=O)[C@H](Cc2ccccc2)NC(=O)[C@H](Cc2c[nH]c3ccccc23)NC(=O)[C@@H]2C[C@H](NC(=N)N)CN2C(=O)[C@@H](NC(=O)[C@@H](N)Cc2ccccc2)C(C)C)C(=O)N[C@@H](CCCCN)C(=O)N[C@@H](Cc2ccccc2)C(=O)N[C@H](CC(C)C)C(=O)N1)C(=O)N[C@@H](CC(C)C)C(N)=O [Peptide 7, FV(4-guanidino)PWF[KKFle]RIL] (H-FV[Pro(cis-4-guanidino)]WFKKF[dL][dE]RIL-NH2; lactam 6-10)
Output: 99%

Task: Please give measured viability at 24 h, 3.12 µM of the following entry: CC[C@H](C)[C@H](NC(=O)[C@H](CCCNC(=N)N)NC(=O)[C@H]1CCC(=O)NCCCC[C@H](NC(=O)[C@H](Cc2ccc(NC(=N)N)cc2)NC(=O)[C@H](Cc2c[nH]c3ccccc23)NC(=O)[C@@H]2CCCN2C(=O)[C@@H](NC(=O)[C@@H](N)Cc2ccccc2)C(C)C)C(=O)N[C@@H](CCCCN)C(=O)N[C@@H](Cc2ccccc2)C(=O)N[C@H](CC(C)C)C(=O)N1)C(=O)N[C@@H](CC(C)C)C(N)=O [Peptide 8, FVPW(p-guanidino)F[KKFle]RIL] (H-FVPW[Phe(4-guanidino)]KKF[dL][dE]RIL-NH2; lactam 6-10)
Output: 101%

---

# Format: cell-based, human
# REPORTED_CONDITIONS: human, Cell viability (%)
Provide the recorded viability at 24 h, 3.12 µM for the entries that follow.
Number in %, nothing else.

Task: Please give measured viability at 24 h, 3.12 µM of the following entry: CC[C@H](C)[C@H](NC(=O)[C@H](CCCNC(=N)N)NC(=O)[C@@H]1CCCNC(=N)NCCC[C@H](NC(=O)[C@H](Cc2ccccc2)NC(=O)[C@H](Cc2c[nH]c3ccccc23)NC(=O)[C@@H]2CCCN2C(=O)[C@@H](NC(=O)[C@@H](N)Cc2ccccc2)C(C)C)C(=O)N[C@@H](CCCCN)C(=O)N[C@@H](Cc2ccccc2)C(=O)N[C@H](CC(C)C)C(=O)N1)C(=O)N[C@@H](CC(C)C)C(N)=O [Peptide 13, FVPWF{OrnKFlOrn}RIL]
Output: 103

Task: Please give measured viability at 24 h, 3.12 µM of the following entry: CC[C@H](C)[C@H](NC(=O)[C@H](CCCNC(=N)N)NC(=O)[C@H]1CCCCNC(=N)NCCCC[C@H](NC(=O)[C@H](Cc2ccccc2)NC(=O)[C@H](Cc2c[nH]c3ccccc23)NC(=O)[C@@H]2CCCN2C(=O)[C@@H](NC(=O)[C@@H](N)Cc2ccccc2)C(C)C)C(=O)N[C@@H](CCCCN)C(=O)N[C@@H](Cc2ccccc2)C(=O)N[C@H](CC(C)C)C(=O)N1)C(=O)N[C@@H](CC(C)C)C(N)=O [Peptide 12, FVPWF{KKFlk}RIL]
Output: 100

---

# Type: cell-based, human
# REPORTED_CONDITIONS: human, Cell viability (%)
Bridge positions count the residues as written; N and C are the ends. Square brackets hold non-standard residues; d marks the D form. Peptide text beside a SMILES is read from it. * marks the point of attachment. Butanoyl(4-guanidino) = N=C(N)NCCCC(=O)*
Provide the recorded viability at 24 h, 6.25 µM for the entries that follow.
Number in %, nothing else.

Task: Please give measured viability at 24 h, 6.25 µM of the following entry: CC[C@H](C)[C@H](NC(=O)[C@H](CCCNC(=N)N)NC(=O)[C@H]1CCC(=O)NCCCC[C@H](NC(=O)[C@H](Cc2ccccc2)NC(=O)[C@H](Cc2c[nH]c3ccccc23)NC(=O)[C@@H]2CCCN2C(=O)[C@@H](NC(=O)[C@@H](N)Cc2ccccc2)C(C)C)C(=O)N[C@@H](CCCNC(=N)N)C(=O)N[C@@H](Cc2ccccc2)C(=O)N[C@H](CC(C)C)C(=O)N1)C(=O)N[C@@H](CC(C)C)C(N)=O [Peptide 9, FVPWF[KRFle]RIL] (H-FVPWFKRF[dL][dE]RIL-NH2; lactam 6-10)
Output: 109

Task: Please give measured viability at 24 h, 6.25 µM of the following entry: CC[C@H](C)[C@H](NC(=O)[C@H](CCCNC(=N)N)NC(=O)[C@H]1CCC(=O)NCCCC[C@H](NC(=O)[C@H](Cc2ccccc2)NC(=O)[C@H](Cc2c[nH]c3ccccc23)NC(=O)[C@@H]2CCCN2C(=O)[C@@H](NC(=O)[C@H](Cc2ccccc2)NC(=O)CCCNC(=N)N)C(C)C)C(=O)N[C@@H](CCCCN)C(=O)N[C@@H](Cc2ccccc2)C(=O)N[C@H](CC(C)C)C(=O)N1)C(=O)N[C@@H](CC(C)C)C(N)=O [Peptide 5, guanidino-GABA-FVPWF[KKFle]RIL] ({Butanoyl(4-guanidino)}-FVPWFKKF[dL][dE]RIL-NH2; lactam 6-10)
Output: 137
